- testMethodNotes: In vitro microsomal stability, rat
- Assay type: in vitro ADME
- conditionsUsed: rat, liver microsomes, rat liver microsomes with NADPH
reportedEndpoint: half-life (min)
Answers are plain numbers, in min.

>>> df
                                   compound  reportedendpoint  unitstext  assayresult
0  CC(C)(C)C[C@H]1N[C@@H](C(=O)N[C@H]2CC[C@@H](O)C2)[C@H](c2cccc(Cl)c2)[C@@]12C(=O)Nc1cc(Cl)c(F)cc12         half-life        min         6.05

For each of the compounds below, note its half-life.
1. CC(C)(C)C[C@H]1N[C@@H](C(=O)NCC[C@H](O)CN2CCCC2)[C@H](c2cccc(Cl)c2)[C@@]12C(=O)Nc1cc(Cl)c(F)cc12
2. CC(C)(C)C[C@H]1N[C@@H](C(=O)N[C@H]2CC[C@@H](O)C2)[C@H](c2cccc(Cl)c2F)[C@@]12C(=O)Nc1cc(Cl)ccc12
3. CC(O)C(O)CCNC(=O)[C@@H]1N[C@H](CC(C)(C)C)[C@]2(C(=O)Nc3cc(Cl)c(F)cc32)[C@H]1c1cccc(Cl)c1 (some centres unmarked)
4. CC(C)(C)C[C@H]1N[C@@H](C(=O)NCC[C@H](O)CNC(C)(C)C)[C@H](c2cccc(Cl)c2)[C@@]12C(=O)Nc1cc(Cl)c(F)cc12

1: 74.6; 2: 2.18; 3: 18.7; 4: 48.5

For each of the compounds below, note its half-life.
1. CC(C)(C)C[C@H]1N[C@@H](C(=O)NCC[C@H](O)CN2CC[C@@H](O)C2)[C@H](c2cccc(Cl)c2)[C@@]12C(=O)Nc1cc(Cl)c(F)cc12
2. CC(C)(C)C[C@H]1N[C@@H](C(=O)NCCC(C)(O)CO)[C@H](c2cccc(Cl)c2)[C@@]12C(=O)Nc1cc(Cl)c(F)cc12 (some centres unmarked)

61.3
79.8

Look at this compound and give its reported half-life. CC(C)(C)C[C@H]1N[C@@H](C(=O)NC2CCC(O)CC2)[C@H](c2cccc(Cl)c2F)[C@@]12C(=O)Nc1cc(Cl)ccc12 (some centres unmarked) 17.3

====

Answer each item with its documented % of compound remaining when incubated in rat liver microsomes.
- testMethodNotes: In vitro microsomal stability, rat
- Type: in vitro ADME
- conditionsUsed: Table 17, 30 min
Give bare numbers, in %.

Worked examples follow.
In [3]: df
Out[3]:
                                   compound  assayresult
0  CC(C)(C)C[C@H]1N[C@@H](C(=O)NCCCN2CCCC2)[C@H](c2cccc(Cl)c2F)[C@@]12C(=O)Nc1cc(Cl)ccc12         62.5
1  CC(C)(C)C[C@H]1N[C@@H](C(=O)NCCCN2CCCCC2)[C@H](c2cccc(Cl)c2F)[C@@]12C(=O)Nc1cc(Cl)ccc12         42.5
2  CC(C)N1CCN(CCCNC(=O)[C@@H]2N[C@H](CC(C)(C)C)[C@]3(C(=O)Nc4cc(Cl)ccc43)[C@H]2c2cccc(Cl)c2F)CC1         38.5

For each of the compounds below, note its % of compound remaining when incubated in rat liver microsomes.
1. CC(C)(C)C[C@H]1N[C@@H](C(=O)NCCN2CCCC2)[C@H](c2cccc(Cl)c2F)[C@@]12C(=O)Nc1cc(Cl)c(F)cc12
2. CNC(=O)[C@@H]1N[C@H](CC(C)(C)C)[C@]2(C(=O)Nc3cc(Cl)c(F)cc32)[C@H]1c1cccc(Cl)c1
3. CC(C)(C)C[C@H]1N[C@@H](C(N)=O)[C@H](c2cccc(Cl)c2)[C@@]12C(=O)Nc1cc(Cl)c(F)cc12
4. CC(C)(C)C[C@H]1N[C@@H](C(=O)NCCCN2CCN(C3CC3)CC2)[C@H](c2cccc(Cl)c2F)[C@@]12C(=O)Nc1cc(Cl)ccc12 [MI-519-48]

1. 61.5
2. 57.6
3. 42.9
4. 43.7

====

- testMethodNotes: In vitro microsomal stability, rat
- Type: in vitro ADME
- conditionsUsed: rat liver microsomes, NADPH, 15 min
Checkbox rule: % of compound remaining when incubated in rat liver microsomes with NADPH lower than 60% = criterion met; % of compound remaining when incubated in rat liver microsomes with NADPH not lower than 60% = criterion not met.

See these solved cases before continuing.
compound	categoryLabel
CC(C)(C)C[C@H]1N[C@@H](C(=O)NCC[C@H](O)CN2CCCC2)[C@H](c2cccc(Cl)c2)[C@@]12C(=O)Nc1cc(Cl)c(F)cc12 [MI-519-28]	criterion not met
CC(O)C(O)CCNC(=O)[C@@H]1N[C@H](CC(C)(C)C)[C@]2(C(=O)Nc3cc(Cl)c(F)cc32)[C@H]1c1cccc(Cl)c1 (stereo partly drawn) [MI-519-31]	criterion met
CC(C)(C)C[C@H]1N[C@@H](C(=O)NC2CCC(O)CC2)[C@H](c2cccc(Cl)c2F)[C@@]12C(=O)Nc1cc(Cl)ccc12 (stereo partly drawn) [MI-773]	criterion met
CC(C)(C)C[C@H]1N[C@@H](C(=O)NC2CCC(NS(C)(=O)=O)CC2)[C@H](c2cccc(Cl)c2F)[C@@]12C(=O)Nc1cc(Cl)ccc12 (stereo partly drawn) [MI-771]	criterion met
CC(C)(C)C[C@H]1N[C@@H](C(=O)N[C@H]2CC[C@@H](O)C2)[C@H](c2cccc(Cl)c2)[C@@]12C(=O)Nc1cc(Cl)c(F)cc12 [MI-519-27]	criterion met

Shift focus to the following entry.
I wonder whether CC(C)(C)C[C@H]1N[C@@H](C(=O)NC2CCC(NS(C)(=O)=O)CC2)[C@H](c2cccc(Cl)c2F)[C@@]12C(=O)Nc1cc(Cl)ccc12 (stereo partly drawn) [MI-772] has % of compound remaining when incubated in rat liver microsomes with NADPH below 60%. Can you tell? criterion not met

====

- Tested on: cancer cell lines with wild-type p53 / mutated or deleted p53 (ATCC)
- testMethodNotes: Cell growth assay (WST-8), other cancer cell lines
- Format: cell-based
- conditionsUsed: Homo sapiens, LNCaP, Table 19C; LNCaP cells; read-out: Cell growth inhibition using WST assay, LNCaP IC50
Answer each item with its documented IC50.

>>> df
                                   compound  assayresult
0  O=C(NCC[C@H](O)CO)[C@@H]1N[C@H](CC2(CCO)CCCC2)[C@]2(C(=O)Nc3cc(Cl)c(F)cc32)[C@H]1c1cccc(Cl)c1 [MI-319-37]       < 5 µM
1  CC(C)(C)C[C@H]1N[C@@H](C(=O)NC[C@H](O)[C@H](O)CO)[C@H](Cc2cccc(Cl)c2)[C@@]12C(=O)Nc1cc(Cl)c(F)cc12 [MI-319-24]       < 5 µM
2  CC(C)(C)C[C@H]1N[C@@H](C(=O)NCC[C@H](O)CO)[C@H](c2cc(Cl)ccn2)[C@@]12C(=O)Nc1cc(Cl)c(F)cc12 [MI-319-35]       3.2 µM

For each of the compounds below, note its IC50.
1. CN(CC[C@H](O)CO)C(=O)[C@@H]1N[C@H](CC(C)(C)C)[C@]2(C(=O)Nc3cc(Cl)c(F)cc32)[C@H]1c1cccc(Cl)c1 [MI-319-29]
2. CC(C)(C)C[C@H]1N[C@@H](C(=O)NCC[C@H](O)CO)[C@H](c2cncc(Cl)c2)[C@@]12C(=O)Nc1cc(Cl)c(F)cc12 [MI-319-34]
3. O=C(NCC[C@H](O)CO)[C@H]1[C@H](c2cccc(Cl)c2)[C@@]2(C(=O)Nc3cc(Cl)c(F)cc32)[C@H]2CC3(CCCC3)CCN12 [MI-319-38]
4. CC(C)(CCO)C[C@H]1N[C@@H](C(=O)NCC[C@H](O)CO)[C@H](c2cccc(Cl)c2)[C@@]12C(=O)Nc1cc(Cl)c(F)cc12 [MI-319-36]

["> 10 µM", "< 10 µM", "> 5 µM", "6.4 µM"]

Please tell me: IC50 of CC(C)(C)C[C@H]1N[C@@H](C(=O)NCC[C@H](O)CO)[C@H](Cc2ccccc2)[C@@]12C(=O)Nc1cc(Cl)c(F)cc12 [MI-319-23] , system cancer cell lines with wild-type p53 / mutated or deleted p53 (ATCC)? > 10 µM

====

- targetOrSystem: recombinant human His-tagged MDM2 protein (residues 1-118) (Homo sapiens (Human), UniProt Q00987)
- Sequence (Q00987 1-118): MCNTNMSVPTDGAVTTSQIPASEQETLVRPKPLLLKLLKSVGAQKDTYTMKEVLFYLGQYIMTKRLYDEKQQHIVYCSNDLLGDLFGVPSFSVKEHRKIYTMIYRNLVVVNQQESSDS
- testMethodNotes: Fluorescence-polarization MDM2 binding assay;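 further: fluorescence polarization read after three hours of incubation in potassium phosphate buffer containing bovine gamma globulin and Triton X-100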
- conditionsUsed: Table 19A; FP binding assay; read-out: MDM2 IC50
pIC50: −log10 of the molar value.
Answer each item with its documented pIC50.

Worked examples follow.
molecule	assayResult
CC(C)(C)C[C@H]1N[C@@H](C(=O)NC2CCC(OC(=O)[C@@H](N)Cc3ccccc3)CC2)[C@H](c2cccc(Cl)c2F)[C@@]12C(=O)Nc1cc(Cl)ccc12 (stereo partly drawn)	> 6.00
CN(C)CCC(=O)N1CCN(C(=O)[C@@H]2N[C@H](CC(C)(C)C)[C@]3(C(=O)Nc4cc(Cl)c(F)cc43)[C@H]2c2cccc(Cl)c2)CC1	> 5.00
CC(C)C[C@H](N)C(=O)OC1CCC(NC(=O)[C@@H]2N[C@H](CC(C)(C)C)[C@]3(C(=O)Nc4cc(Cl)ccc43)[C@H]2c2cccc(Cl)c2F)CC1 (stereo partly drawn)	> 5.52
CC(C)NC(=O)N1CC(NC(=O)[C@@H]2N[C@H](CC(C)(C)C)[C@]3(C(=O)Nc4cc(Cl)ccc43)[C@H]2c2cccc(Cl)c2F)C1	> 5.52

For each of the molecules below, note its pIC50.
1. CC(C)[C@H](N)C(=O)OC1CCC(NC(=O)[C@@H]2N[C@H](CC(C)(C)C)[C@]3(C(=O)Nc4cc(Cl)ccc43)[C@H]2c2cccc(Cl)c2F)CC1 (stereo partly drawn)
2. CC(C)(C)C[C@H]1N[C@@H](C(N)=O)[C@H](c2cccc(Cl)c2F)[C@@]12C(=O)Nc1cc(Cl)ccc12
3. CC(=O)N1CCC(NC(=O)[C@@H]2N[C@H](CC(C)(C)C)[C@]3(C(=O)Nc4cc(Cl)ccc43)[C@H]2c2cccc(Cl)c2F)CC1
4. CC(C)[C@@H](N)C(=O)OC1CCC(NC(=O)[C@@H]2N[C@H](CC(C)(C)C)[C@]3(C(=O)Nc4cc(Cl)ccc43)[C@H]2c2cccc(Cl)c2F)CC1 (stereo partly drawn)
5. CC(C)(C)C[C@H]1N[C@@H](C(=O)N[C@H]2CC[C@@H](O)C2)[C@H](c2cccc(Cl)c2)[C@@]12C(=O)Nc1cc(Cl)c(F)cc12
6. CC(C)(C)C[C@H]1N[C@@H](C(N)=O)[C@H](c2cccc(Cl)c2)[C@@]12C(=O)Nc1cc(Cl)c(F)cc12

1. > 5.52
2. > 6.00
3. > 6.30
4. > 6.00
5. > 6.00
6. > 6.00

For each of the molecules below, note its pIC50.
1. CC(C)(C)C[C@H]1N[C@@H](C(=O)NCCC(=O)CO)[C@H](c2cccc(Cl)c2)[C@@]12C(=O)Nc1cc(Cl)c(F)cc12
2. O=C(NC1CCC(O)CC1)[C@@H]1N[C@H](CC2CCCC2)[C@]2(C(=O)Nc3cc(Cl)ccc32)[C@H]1c1cccc(Cl)c1F (stereo partly drawn)

["> 6.00", "> 5.52"]
